For each entry below, report its EC50 value.
Molecular target: T1, Human VSIG4-L-CHO (human VSIG4 long isoform on CHO-K1 cells) (human, UniProt Q9Y279 20-399)
T1 construct: also called hVSIG4-L (flow cytometry)
T1 sequence: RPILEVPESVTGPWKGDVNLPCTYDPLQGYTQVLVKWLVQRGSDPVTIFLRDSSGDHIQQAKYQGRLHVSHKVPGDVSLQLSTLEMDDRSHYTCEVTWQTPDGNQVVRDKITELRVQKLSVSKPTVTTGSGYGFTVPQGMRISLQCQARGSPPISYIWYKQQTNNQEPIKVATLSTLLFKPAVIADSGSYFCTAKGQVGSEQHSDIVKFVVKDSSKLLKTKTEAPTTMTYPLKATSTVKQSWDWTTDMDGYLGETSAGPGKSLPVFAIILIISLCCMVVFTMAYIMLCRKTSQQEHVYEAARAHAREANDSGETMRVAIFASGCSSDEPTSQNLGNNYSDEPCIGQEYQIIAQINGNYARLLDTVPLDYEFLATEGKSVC
Experiment: flow cytometry, CHO-K1 cells expressing hVSIG4-L
# output: bare number, implied unit nM

## Task Look up EC50 of 14C05 mouse/human chimeric IgG4 (S228P) kappa (antibody, V domains shown) VH: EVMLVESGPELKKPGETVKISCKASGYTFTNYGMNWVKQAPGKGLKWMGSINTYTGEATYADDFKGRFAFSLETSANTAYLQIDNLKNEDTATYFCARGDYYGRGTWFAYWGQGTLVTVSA VL: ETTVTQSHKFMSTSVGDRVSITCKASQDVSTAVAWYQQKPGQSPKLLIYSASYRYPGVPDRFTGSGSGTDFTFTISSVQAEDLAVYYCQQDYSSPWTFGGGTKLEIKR and report it.
## Result 4.4

## Task Look up EC50 of 14D12 mouse/human chimeric IgG4 (S228P) kappa (antibody, V domains shown) VH: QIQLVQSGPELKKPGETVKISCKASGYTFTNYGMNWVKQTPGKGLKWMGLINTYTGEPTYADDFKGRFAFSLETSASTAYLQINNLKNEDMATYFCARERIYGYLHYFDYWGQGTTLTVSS VL: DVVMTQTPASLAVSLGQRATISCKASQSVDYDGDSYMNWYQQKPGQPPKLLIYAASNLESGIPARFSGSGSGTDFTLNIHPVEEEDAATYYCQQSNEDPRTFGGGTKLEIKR and report it.
## Result 2.8

## Task Look up EC50 of 12A12 mouse/human chimeric IgG4 (S228P) kappa (antibody, V domains shown) VH: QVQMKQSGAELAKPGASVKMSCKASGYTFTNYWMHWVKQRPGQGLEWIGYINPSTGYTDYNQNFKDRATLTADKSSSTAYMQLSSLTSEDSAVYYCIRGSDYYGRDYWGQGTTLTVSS VL: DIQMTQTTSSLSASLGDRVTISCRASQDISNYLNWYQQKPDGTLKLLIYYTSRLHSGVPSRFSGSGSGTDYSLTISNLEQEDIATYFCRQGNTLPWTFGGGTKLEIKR and report it.
## Result 4.4

## Task Look up EC50 of 15A06 mouse/human chimeric IgG4 (S228P) kappa (antibody, V domains shown) VH: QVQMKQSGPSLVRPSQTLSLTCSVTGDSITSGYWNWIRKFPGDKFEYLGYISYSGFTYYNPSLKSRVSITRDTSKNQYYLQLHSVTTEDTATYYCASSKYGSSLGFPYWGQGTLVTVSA VL: DVVMTQTPLSLPVSLGDQASISCRSSQSLVHSNGNTYLHWYLQKPGQSPKLLIYKVSNRFSGVPDRFSGSGSGTDFTLKISRVEAEDLGVYFCSQSTHVPFTFGSGTKLEIKR and report it.
## Result 2.4

## Task Look up EC50 of 15C04 mouse/human chimeric IgG4 (S228P) kappa (antibody, V domains shown) VH: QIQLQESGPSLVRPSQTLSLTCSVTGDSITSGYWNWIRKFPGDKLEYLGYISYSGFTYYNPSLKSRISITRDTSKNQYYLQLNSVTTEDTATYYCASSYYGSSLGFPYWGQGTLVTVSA VL: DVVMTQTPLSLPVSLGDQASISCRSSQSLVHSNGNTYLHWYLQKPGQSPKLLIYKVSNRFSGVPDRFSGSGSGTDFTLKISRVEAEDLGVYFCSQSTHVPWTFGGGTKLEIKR and report it.
## Result 8.9

## Task Look up EC50 of 15C03 mouse/human chimeric IgG4 (S228P) kappa (antibody, V domains shown) VH: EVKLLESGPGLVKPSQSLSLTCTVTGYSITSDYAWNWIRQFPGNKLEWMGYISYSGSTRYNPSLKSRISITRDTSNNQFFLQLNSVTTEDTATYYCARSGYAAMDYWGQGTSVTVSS VL: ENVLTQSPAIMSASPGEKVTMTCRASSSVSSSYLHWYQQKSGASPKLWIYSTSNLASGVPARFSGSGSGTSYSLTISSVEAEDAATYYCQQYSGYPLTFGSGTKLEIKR and report it.
## Result 2.3

## Task Look up EC50 of 13H11 mouse/human chimeric IgG4 (S228P) kappa (antibody, V domains shown) VH: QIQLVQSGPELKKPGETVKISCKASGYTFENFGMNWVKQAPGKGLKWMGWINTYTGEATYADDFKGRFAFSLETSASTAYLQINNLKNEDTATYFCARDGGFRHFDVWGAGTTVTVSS VL: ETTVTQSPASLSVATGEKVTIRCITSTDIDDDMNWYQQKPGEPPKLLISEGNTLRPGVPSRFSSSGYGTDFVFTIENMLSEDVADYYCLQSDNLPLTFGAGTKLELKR and report it.
## Result 1.2

## Task Look up EC50 of 16E03 mouse/human chimeric IgG4 (S228P) kappa (antibody, V domains shown) VH: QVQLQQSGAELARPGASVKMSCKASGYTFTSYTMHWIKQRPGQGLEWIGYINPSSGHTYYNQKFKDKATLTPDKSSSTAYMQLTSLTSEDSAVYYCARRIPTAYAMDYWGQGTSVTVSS VL: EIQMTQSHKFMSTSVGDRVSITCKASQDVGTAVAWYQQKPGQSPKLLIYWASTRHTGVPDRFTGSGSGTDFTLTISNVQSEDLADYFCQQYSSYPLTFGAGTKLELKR and report it.
## Result 1

## Task Look up EC50 of 12A08 mouse/human chimeric IgG4 (S228P) kappa (antibody, V domains shown) VH: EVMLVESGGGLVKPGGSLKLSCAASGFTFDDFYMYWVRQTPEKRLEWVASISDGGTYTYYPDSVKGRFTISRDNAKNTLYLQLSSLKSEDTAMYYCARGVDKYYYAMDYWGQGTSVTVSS VL: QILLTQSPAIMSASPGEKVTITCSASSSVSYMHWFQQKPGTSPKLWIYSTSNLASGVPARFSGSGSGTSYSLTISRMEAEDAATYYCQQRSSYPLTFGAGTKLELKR and report it.
## Result 6.8

## Task Look up EC50 of 16E10 mouse/human chimeric IgG4 (S228P) kappa (antibody, V domains shown) VH: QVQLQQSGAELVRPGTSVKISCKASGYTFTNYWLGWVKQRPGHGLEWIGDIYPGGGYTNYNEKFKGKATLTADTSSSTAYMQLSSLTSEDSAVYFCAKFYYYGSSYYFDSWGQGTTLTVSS VL: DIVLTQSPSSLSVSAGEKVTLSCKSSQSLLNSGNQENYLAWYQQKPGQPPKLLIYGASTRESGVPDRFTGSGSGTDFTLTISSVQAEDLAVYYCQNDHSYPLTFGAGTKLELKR and report it.
## Result 1
